Experiment: Half life in dog liver microsomes
Conditions: liver microsomes
Please respond with reported half-life for every item in the list.
One number for each entry, in min.

# count of solved cases: 4
O=C1Nc2ccccc2[C@]12C[C@H]2c1ccc2c(/C=C/c3ccc(CN4CCOCC4)cc3)n[nH]c2c1 ... 4.7
COc1ccc2c(c1)[C@]1(C[C@H]1c1ccc3c(/C=C/c4ccc(CN5CCOCC5)cc4)n[nH]c3c1)C(=O)N2 ... 9.4
COc1ccc2c(c1)[C@]1(C[C@H]1c1ccc3c(/C=C/c4ccc(CN5[C@H](C)CN(C)C[C@@H]5C)cc4)n[nH]c3c1)C(=O)N2 ... 39
COc1ccc2c(c1)[C@]1(C[C@H]1c1ccc3c(/C=C/c4ccc(CN5C[C@@H](C)O[C@@H](C)C5)cc4)n[nH]c3c1)C(=O)N2 ... 43

Quick one: half-life of Cc1ccc2c(c1)[C@]1(C[C@H]1c1ccc3c(/C=C/c4ccc(CN5CCOCC5)cc4)n[nH]c3c1)C(=O)N2 ?
9.5

* * *

Assay: Cmax in athymic CD1 nude mouse at 25 mg/kg, po by LC/MS/MS analysis
Format: ADME, organism-based
Parameters: dose 25 mg/kg, route oral
Conditions: in vivo
Hi there, I'd appreciate the recorded Cmax for every entry that follows.
One number for each entry, in ng/mL.

Consider the worked cases shown below.
O=C1Nc2ccccc2[C@]12C[C@H]2c1ccc2c(/C=C/c3ccc(CN4CCOCC4)cc3)n[nH]c2c1 ... 3500
COc1ccc2c(c1)[C@]1(C[C@H]1c1ccc3c(/C=C/c4ccc(CN5C[C@@H](C)O[C@@H](C)C5)cc4)n[nH]c3c1)C(=O)N2C ... 3400

Consider the record given below.
Returns the measured Cmax for the input compound. Input: C[C@@H]1CN(Cc2ccc(/C=C/c3n[nH]c4cc([C@@H]5C[C@@]56C(=O)Nc5ccccc56)ccc34)cc2)C[C@H](C)O1
3700

* * *

Assay: Half life in human liver microsomes
Settings: microsomes
Property label: half-life (min)
Answers are plain numbers, in min.

Use these answered entries as a reference point.
COc1ccc2c(c1)[C@]1(C[C@H]1c1ccc3c(/C=C/c4ccc(CN5CCOCC5)cc4)n[nH]c3c1)C(=O)N2C ... 37
CN(C)Cc1ccc(/C=C/c2n[nH]c3cc([C@@H]4C[C@@]45C(=O)N(C)c4ccccc45)ccc23)cc1 ... 44
COc1ccc2c(c1)[C@]1(C[C@H]1c1ccc3c(/C=C/c4ccc([C@H](C)N5CCOCC5)cc4)n[nH]c3c1)C(=O)N2C ... 53

Then this compound:
# half-life lookup, item O=C1Nc2ccccc2[C@]12C[C@H]2c1ccc2c(/C=C/c3ccc(N4CCNCC4)cc3)n[nH]c2c1
46

* * *

Test: Half life in mouse liver microsomes
Conditions: liver microsomes
Property label: half-life (min)
Numbers only, in min.

COc1ccc2c(c1)[C@]1(C[C@H]1c1ccc3c(/C=C/c4ccc(N5CCN(C)CC5)nc4)n[nH]c3c1)C(=O)N2 ... 6
COc1ccc2c(c1)[C@]1(C[C@H]1c1ccc3c(/C=C/c4ccc(CN5C[C@@H](C)O[C@@H](C)C5)cc4)n[nH]c3c1)C(=O)N2 ... 24
Cc1ccc2c(c1)[C@]1(C[C@H]1c1ccc3c(/C=C/c4ccc(CN5CCOCC5)cc4)n[nH]c3c1)C(=O)N2 ... 13
O=C1Nc2ccccc2[C@]12C[C@H]2c1ccc2c(/C=C/c3ccc(CN4CC[C@@H](F)C4)cc3)n[nH]c2c1 ... 17
COc1ccc2c(c1)[C@]1(C[C@H]1c1ccc3c(/C=C/c4ccc(CN(C)C)cc4)n[nH]c3c1)C(=O)N2 ... 22

Each compound below has a reported value. Please supply its half-life.
1. COc1ccc2c(c1)[C@]1(C[C@H]1c1ccc3c(/C=C/c4ccc(CN5CCOCC5)cc4)n[nH]c3c1)C(=O)N2
2. CN1CCN(c2ccc(/C=C/c3n[nH]c4cc([C@@H]5C[C@@]56C(=O)N(C)c5ccccc56)ccc34)cn2)CC1
3. O=C1Nc2ccccc2[C@]12C[C@H]2c1ccc2c(/C=C/c3ccc(CN4CCOCC4)cc3)n[nH]c2c1
4. COc1ccc2c(c1)[C@]1(C[C@H]1c1ccc3c(/C=C/c4ccc(CN5CCCCC5)cc4)n[nH]c3c1)C(=O)N2
5. CC(C)N1CCC(Oc2ccc(/C=C/c3n[nH]c4cc([C@@H]5C[C@@]56C(=O)Nc5ccccc56)ccc34)cc2)CC1

1. 12
2. 7
3. 15
4. 40
5. 30

Data request, read-out half-life, for COc1ccc2c(c1)[C@]1(C[C@H]1c1ccc3c(/C=C/c4ccc(CN5[C@H](C)CN(C)C[C@@H]5C)cc4)n[nH]c3c1)C(=O)N2
38
